Entries and their hepatocyte CLint
PROTOCOL_TEXT: Metabolic stability in human liver hepatocytes (substrate depletion, intrinsic clearance)
Format: in vitro ADME
CONDITION_PARAMETERS: 37° C., Williams E Media, LC-MS/MS depletion
READOUT_LABEL: hepatocyte CLint

* CCc1c(F)ccc2cc(O)cc(-c3cc4nc(OC[C@@]56CCCN5C[C@H](F)C6)nc(N5CCCOCC5)c4c4cn(C)nc34)c12 [Example 1] | 73.3 µL/min/1e6 cells
* C#Cc1c(F)ccc2cc(O)cc(-c3cc4nc(OC[C@@]56CCCN5C[C@H](F)C6)nc(N5CCCOCC5)c4c4cn(C)nc34)c12 [Example 2] | 54.2 µL/min/1e6 cells
* CCc1c(F)ccc2cc(O)cc(-c3cc4nc(OC[C@@]56CCCN5C[C@H](F)C6)nc(N5CCCCCC5)c4c4cn(C)nc34)c12 [Example 9] | 42.5 µL/min/1e6 cells
* C#Cc1c(F)ccc2cc(O)cc(-c3ncc4c(N5CCCCCC5)nc(OC[C@@]56CCCN5C[C@H](F)C6)nc4c3F)c12 [WO2022248885 Example 84, reference compound] | 95.6 µL/min/1e6 cells
* C#Cc1c(F)ccc2cc(O)cc(-c3cc4nc(OC[C@@]56CCCN5C[C@H](F)C6)nc(N5CCCCCC5)c4c4cn(C)nc34)c12 [Example 12] | 47.8 µL/min/1e6 cells
* C#Cc1c(F)ccc2cc(O)cc(-c3ccc4c(N5CCCOCC5)nc(OC[C@@]56CCCN5C[C@H](F)C6)nc4c3F)c12 [WO2022258974 Example 26, reference compound] | 94.6 µL/min/1e6 cells
